# Test system: NCI-H23 (G12C)
# protocol-description: Cell selectivity test, proliferation inhibition NCI-H23
# Assay type: cell-based
# run-parameters: Homo sapiens, 72 hours
pIC50: −log10 of the molar value.

>  <smiles-string>
C=CC(=O)N1CCN(c2nc(=O)n(-c3c(C)ccnc3C(C)C)c3nc(-c4c(O)cccc4F)c(F)cc23)[C@@H](C)C1

>  <measured-target>
NCI-H23 (G12C)

>  <pIC50>
8.12

$$$$

###

# protocol-description: Pharmacokinetics study in mice (IV and PO)
# Type: in vivo
# run-parameters: mouse, plasma; ICR male mice, intravenous injection, 1 mg/kg
# Method: Preparation of 0.5% methyl cellulose: 5 g of methyl cellulose were weighed and dissolved in 1000 mL of purified water. Preparation of oral formulation: a required amount of the test compound was weighed and dissolved in 0.5% methyl cellulose solution to obtain a suspension or solution of 0.5 mg/mL. Preparation of intravenous injection formulation: a required amount of test compound was weighed, and dissolved in 0.5 mL of dimethyl sulfoxide to prepare a solution of 4 mg/mL. […]
assay-endpoint: AUC(0-inf)

>  <smiles-string>
C=CC(=O)N1CCN(c2nc(=O)n(-c3c(C)ccnc3C(C)C)c3nc(-c4c(O)cccc4F)c(F)cc23)[C@@H](C)C1

>  <reported-value>
227 ng·h/mL

$$$$
